Species: Rattus norvegicus
Experiment: Open TG-GATES - Regimen: Single
Type: toxicity, organism-based, Sprague-Dawley
Parameters: regimen Single, gender Male, age 6 weeks
Conditions: in vivo, po, 300 mg/kg, 6 h, tissue Blood, route gavage, dose level Middle
MEASURED ENDPOINT: Neu (%)
I only need the number, in %, no unit after it.

Qu. Give the measured Neu for CCc1cc(C(N)=S)ccn1 [ETHIONAMIDE]
Ans. 12.4

Qu. Give the measured Neu for "Clc1ccccc1CN1CCc2sccc2C1"
Ans. 18.4

Qu. Give the measured Neu for "C[C@H](CS)C(=O)N1CCC[C@H]1C(=O)O"
Ans. 12.2

Qu. Give the measured Neu for "O=C(O)c1cc(/N=N/c2ccc(S(=O)(=O)Nc3ccccn3)cc2)ccc1O"
Ans. 19

* * *

Species: Rattus norvegicus
Experiment: Open TG-GATES - Regimen: Single
Assay type: toxicity, organism-based, Sprague-Dawley
Design: regimen Single, gender Male, age 6 weeks
Conditions: in vivo, po, 300 mg/kg, 24 h, tissue Plasma, route gavage, dose level Middle
MEASURED ENDPOINT: BUN (mg/dL)
I only need the number, in mg/dL, no unit after it.

Qu. Give the measured BUN for "O=C(O)c1cn(C2CC2)c2cc(N3CCNCC3)c(F)cc2c1=O"
Ans. 17.6

Qu. Give the measured BUN for "C[C@H](CS)C(=O)N1CCC[C@H]1C(=O)O"
Ans. 17.4

Qu. Give the measured BUN for CCc1cc(C(N)=S)ccn1 [ETHIONAMIDE]
Ans. 15

Qu. Give the measured BUN for "O=C(O)c1cc(/N=N/c2ccc(S(=O)(=O)Nc3ccccn3)cc2)ccc1O"
Ans. 13.8

* * *

Species on record: Rattus norvegicus
Experiment: Open TG-GATES - Regimen: Daily Repeat
Format: toxicity, organism-based, Sprague-Dawley
Parameters: regimen Daily Repeat, gender Male, age 6 weeks
Details: in vivo, po, 0 mg/kg, 72 h, tissue Plasma, route gavage, dose level Control, time 3 day
MEASURED ENDPOINT: PL (mg/dL)
I only need the number, in mg/dL, no unit after it.

Qu. Give the measured PL for COc1ccc2c(c1)c(CC(=O)O)c(C)n2C(=O)c1ccc(Cl)cc1 [INDOMETHACIN]
Ans. 144.4

Qu. Give the measured PL for O=C(O)c1cn(C2CC2)c2cc(N3CCNCC3)c(F)cc2c1=O [CIPROFLOXACIN]
Ans. 157

Qu. Give the measured PL for CCc1cc(C(N)=S)ccn1 [ETHIONAMIDE]
Ans. 153

Qu. Give the measured PL for Clc1ccccc1CN1CCc2sccc2C1 [TICLOPIDINE]
Ans. 148.6

Qu. Give the measured PL for Cn1c(=O)c2[nH]cnc2n(C)c1=O.O [THEOPHYLLINE]
Ans. 156.6

Qu. Give the measured PL for NC(=O)N1c2ccccc2C=Cc2ccccc21 [CARBAMAZEPINE]
Ans. 144

Qu. Give the measured PL for CC(=O)Oc1ccccc1C(=O)O [ASPIRIN]
Ans. 148.8

* * *

Organism: Rattus norvegicus
Experiment: Open TG-GATES - Regimen: Single
Format: toxicity, organism-based, Sprague-Dawley
Design: regimen Single, gender Male, age 6 weeks
Conditions: in vivo, po, 100 mg/kg, 6 h, tissue Blood, route gavage, dose level Low
MEASURED ENDPOINT: Fbg (mg/dL)
I only need the number, in mg/dL, no unit after it.

Qu. Give the measured Fbg for "Clc1ccccc1CN1CCc2sccc2C1"
Ans. 231.6

Qu. Give the measured Fbg for CCc1cc(C(N)=S)ccn1 [ETHIONAMIDE]
Ans. 208.8

Qu. Give the measured Fbg for "O=C(O)c1cn(C2CC2)c2cc(N3CCNCC3)c(F)cc2c1=O"
Ans. 216.6

Qu. Give the measured Fbg for "O=C(O)c1cc(/N=N/c2ccc(S(=O)(=O)Nc3ccccn3)cc2)ccc1O"
Ans. 218.6

* * *

Species: Rattus norvegicus
Test: Open TG-GATES - Regimen: Daily Repeat
Format: toxicity, organism-based, Sprague-Dawley
Parameters: regimen Daily Repeat, gender Male, age 6 weeks
Conditions: in vivo, po, 0 mg/kg, […], tissue Blood, route gavage, dose level Control, time 28 day
One threshold, 1%, splits the recorded Eos values: lower ones are true (1), equal or higher ones are false (0).

Qu. Bench note: check whether "O=C(O)c1cc(/N=N/c2ccc(S(=O)(=O)Nc3ccccn3)cc2)ccc1O" shows Eos below 1%
Ans. true (1)

Qu. Bench note: check whether "CO[C@H]1/C=C/O[C@@]2(C)Oc3c(C)c(O)c4c(O)c(c(/C=N/N5CCN(C)CC5)c(O)c4c3C2=O)NC(=O)/C(C)=C\C=C\[C@H](C)[C@H](O)[C@@H](C)[C@@H](O)[C@@H](C)[C@H](OC(C)=O)[C@@H]1C" shows Eos below 1%
Ans. true (1)

Qu. Bench note: check whether CSc1ccc2c(c1)N(CCC1CCCCN1C)c1ccccc1S2 (stereo not given) shows Eos below 1%
Ans. true (1)

Qu. Bench note: check whether NC(=O)N1c2ccccc2C=Cc2ccccc21 [CARBAMAZEPINE] shows Eos below 1%
Ans. false (0)

Qu. Bench note: check whether "COc1ccc2c(c1)c(CC(=O)O)c(C)n2C(=O)c1ccc(Cl)cc1" shows Eos below 1%
Ans. true (1)

Qu. Bench note: check whether CCc1cc(C(N)=S)ccn1 [ETHIONAMIDE] shows Eos below 1%
Ans. false (0)

Qu. Bench note: check whether "NC(=O)N/N=C/c1ccc([N+](=O)[O-])o1" shows Eos below 1%
Ans. false (0)

Qu. Bench note: check whether "COc1ccc(Cc2nccc3cc(OC)c(OC)cc23)cc1OC" shows Eos below 1%
Ans. false (0)

* * *

Species on record: Rattus norvegicus
Test: Open TG-GATES - Regimen: Single
Format: toxicity, organism-based, Sprague-Dawley
Parameters: regimen Single, gender Male, age 6 weeks
Details: in vivo, po, 0 mg/kg, 24 h, tissue Kidney, route gavage, dose level Control
Exercise: state measured KIDNEY_R for each of the molecules provided.
I only need the number, in g, no unit after it.

Qu. Give the measured KIDNEY_R for COc1ccc(Cc2nccc3cc(OC)c(OC)cc23)cc1OC [PAPAVERINE]
Ans. 1

Qu. Give the measured KIDNEY_R for CSc1ccc2c(c1)N(CCC1CCCCN1C)c1ccccc1S2 (stereo not given) [THIORIDAZINE]
Ans. 1

Qu. Give the measured KIDNEY_R for CN(C)CCC=C1c2ccccc2CCc2ccccc21 [AMITRIPTYLINE]
Ans. 0.9

Qu. Give the measured KIDNEY_R for NC(=O)N/N=C/c1ccc([N+](=O)[O-])o1 [NITROFURAZONE]
Ans. 0.9

Qu. Give the measured KIDNEY_R for COc1cc2c(c3oc(=O)c4c(c13)CCC4=O)[C@@H]1C=CO[C@@H]1O2 [AFLATOXIN]
Ans. 1

Qu. Give the measured KIDNEY_R for Clc1ccccc1CN1CCc2sccc2C1 [TICLOPIDINE]
Ans. 1

Qu. Give the measured KIDNEY_R for CC(=O)Oc1ccccc1C(=O)O [ASPIRIN]
Ans. 1

Qu. Give the measured KIDNEY_R for O=C(O)c1cn(C2CC2)c2cc(N3CCNCC3)c(F)cc2c1=O [CIPROFLOXACIN]
Ans. 0.9

Qu. Give the measured KIDNEY_R for COc1ccc2c(c1)c(CC(=O)O)c(C)n2C(=O)c1ccc(Cl)cc1 [INDOMETHACIN]
Ans. 1

Qu. Give the measured KIDNEY_R for NC(=O)N1c2ccccc2C=Cc2ccccc21 [CARBAMAZEPINE]
Ans. 1

* * *

Exercise: state measured Eos for each of the molecules provided.
Species on record: Rattus norvegicus
Experiment: Open TG-GATES - Regimen: Single
Format: toxicity, organism-based, Sprague-Dawley
Parameters: regimen Single, gender Male, age 6 weeks
Details: in vivo, po, 1000 mg/kg, 9 h, tissue Blood, route gavage, dose level High
I only need the number, in %, no unit after it.

Qu. Give the measured Eos for Clc1ccccc1CN1CCc2sccc2C1 [TICLOPIDINE]
Ans. 0.6

Qu. Give the measured Eos for O=C(O)c1cc(/N=N/c2ccc(S(=O)(=O)Nc3ccccn3)cc2)ccc1O [SULFASALAZINE]
Ans. 0.8

Qu. Give the measured Eos for C[C@H](CS)C(=O)N1CCC[C@H]1C(=O)O [CAPTOPRIL]
Ans. 1

Qu. Give the measured Eos for CCc1cc(C(N)=S)ccn1 [ETHIONAMIDE]
Ans. 1.2

Qu. Give the measured Eos for O=C(O)c1cn(C2CC2)c2cc(N3CCNCC3)c(F)cc2c1=O [CIPROFLOXACIN]
Ans. 0.8

* * *

Exercise: state measured RBC for each of the compounds provided.
Species: Rattus norvegicus
Test: Open TG-GATES - Regimen: Single
Type: toxicity, organism-based, Sprague-Dawley
Parameters: regimen Single, gender Male, age 6 weeks
Details: in vivo, po, 300 mg/kg, 9 h, tissue Blood, route gavage, dose level Middle
I only need the number, in x10_4/ul, no unit after it.

Qu. Give the measured RBC for "Clc1ccccc1CN1CCc2sccc2C1"
Ans. 621.4

Qu. Give the measured RBC for CCc1cc(C(N)=S)ccn1 [ETHIONAMIDE]
Ans. 669.8

Qu. Give the measured RBC for "C[C@H](CS)C(=O)N1CCC[C@H]1C(=O)O"
Ans. 604.2

Qu. Give the measured RBC for "O=C(O)c1cn(C2CC2)c2cc(N3CCNCC3)c(F)cc2c1=O"
Ans. 588.6

Qu. Give the measured RBC for "O=C(O)c1cc(/N=N/c2ccc(S(=O)(=O)Nc3ccccn3)cc2)ccc1O"
Ans. 603

Source of measurements: ChEMBL document CHEMBL3885861
